target: T1, dog serum albumin (dog, UniProt P49822 25-608); assay: SPR (Biacore 8K), albumin immobilized on CM5 chip, 25 C, 1:1 kinetic fit
T1 construct: Bought protein, immobilized on a CM5 chip by amine coupling; also called Dog SA
MEASURED_PARAMETER: Kd (nM)
Provide the reading as a plain figure in nM.

Input line: Dear colleague, I am looking for the recorded Kd of the following binder: RLN Analog 13 (other, Single-chain fusion: VHH - (G4Q)5 L1 - RLN2 A chain (desA1-4) - L2 - RLN2 B chain (desB1)) EVQLLESGGGLVQPGGSLRLSCAASGRYIDETAVAWFRQAPGKGREFVAGIGGGVDITYYADSVKGRFTISRDNSKNTLYLQMNSLRPEDTAVYYCAARPGRPLITSKVADLYPYWGQGTLVTVSSGGGGQGGGGQGGGGQGGGGQGGGGQALANKCCHVGCTKRSLARFCGGGSGGSGGGSWMEEVIKLCGRELVRAQIAICGMSTWS
Output line: 0.92

Input line: Dear colleague, I am looking for the recorded Kd of the following binder: RLN Analog 6 (other, Single-chain fusion: RLN2 B chain (desB1) - L2 - RLN2 A chain - PGPQ-repeat L1 - VHH (C-terminal)) SWMEEVIKLCGRELVRAQIAICGMSTWSGGGSGGSGGGQLYSALANKCCHVGCTKRSLARFCPGPQPGPQPGPQPGPQPGPQPGPQPGPQPGPQEVQLLESGGGLVQPGGSLRLSCAASGRYIDETAVAWFRQAPGKEREFVAGIGGGVDITYYADSVKGRFTISRDNSKNTLYLQMNSLRPEDTAVYYCAARPGRPLITSKVADLYPYWGQGTLVTVSSPP
Output line: 4.1

Where do these numbers come from? They come from patent US20260125446A1.
